- experimental.system: HuR RRM1/2 (UniProt Q15717 20-186)
- Sequence (Q15717 20-186): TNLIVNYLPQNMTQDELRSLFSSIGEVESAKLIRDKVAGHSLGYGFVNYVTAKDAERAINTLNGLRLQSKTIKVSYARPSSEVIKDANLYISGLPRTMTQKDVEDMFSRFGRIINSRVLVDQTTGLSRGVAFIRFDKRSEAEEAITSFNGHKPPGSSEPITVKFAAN
- test.summary: AlphaLISA
property.name: Kd (µM)

1) GCUUUUAUUUAUUUUG (ssRNA) [Msi1 RNA biotinylated] ... 0.075
